Tested on: NCI-H522 lung
Test: NCI tumour cell line growth inhibition, 48 h
parameter.measured: TGI (µM)
Respond numerically; units are µM and should not be typed.

>>> measured_result("Cc1c(CCCl)c(Cl)n2c(nc3ccccc32)c1C#N")
1.46
>>> measured_result("C1CCC(CC2CCC(NC3=NCCO3)CC2)CC1 (centres undefined)")
41.9
>>> measured_result("CC(=O)OC1CCC2(C)C(CCC3C2CCC2(C)C(c4ccc(=O)oc4)C(OC(C)=O)CC32O)C1 (centres undefined)")
0.025

// moving on: another record for TGI
Noted for O=C1C=C2SC3C[C@@]24CC1(O)[N+]1=c2c4c(c(O)c4c2=C(C=N4)CC1)N3 : its TGI reads 0.789
